biological target: Sodium-dependent dopamine transporter (Homo sapiens) (UniProt Q01959); assay: modulators of human DAT uptake with cocaine – cell-based, LLC-PK1 hDAT, [14C]-dopamine uptake, MLSMR, cocaine antagonist project, primary screen (AID 449768); conditions: LLC-PK1 hDAT cells, [14C]-dopamine uptake with cocaine IC80; at 10 µM; actives deviate in either direction
Sequence (Q01959 whole entry, looked up): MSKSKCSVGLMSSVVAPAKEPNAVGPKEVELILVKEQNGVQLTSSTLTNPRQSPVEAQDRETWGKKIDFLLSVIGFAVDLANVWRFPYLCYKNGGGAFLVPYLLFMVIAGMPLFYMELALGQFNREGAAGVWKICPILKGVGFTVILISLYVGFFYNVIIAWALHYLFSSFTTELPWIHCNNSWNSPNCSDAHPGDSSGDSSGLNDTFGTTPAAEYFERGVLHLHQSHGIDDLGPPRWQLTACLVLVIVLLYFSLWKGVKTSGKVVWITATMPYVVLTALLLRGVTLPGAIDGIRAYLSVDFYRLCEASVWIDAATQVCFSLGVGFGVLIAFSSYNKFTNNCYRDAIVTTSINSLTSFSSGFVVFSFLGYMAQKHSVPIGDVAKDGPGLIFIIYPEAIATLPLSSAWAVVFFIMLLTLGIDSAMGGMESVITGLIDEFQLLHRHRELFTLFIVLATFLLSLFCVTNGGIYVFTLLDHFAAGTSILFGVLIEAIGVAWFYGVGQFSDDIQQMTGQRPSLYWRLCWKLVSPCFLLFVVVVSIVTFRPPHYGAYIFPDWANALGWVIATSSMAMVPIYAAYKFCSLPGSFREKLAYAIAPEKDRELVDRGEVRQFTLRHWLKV
Screen size: about 110,000 compounds; about 1,400 (1.3%) were called active.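 Rule for the calls: active = Z score or B-score, a plate-position-corrected score, falls beyond the plate's 99.7% confidence bounds, in either direction; inactive = both scores lie inside the 99.7% bounds.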 The sample holds actives, similar compounds and a random draw of the others, so the mix is not that of the screen.
Would you mind answering with one of these outcomes? active, inactive

Solved entries:
INSERT INTO results (molecule_smiles, measured_target, group) VALUES
  ('O=C(COc1ccc2ccccc2c1)N1CCN(Cc2ccncc2)CC1', 'Sodium-dependent dopamine transporter (Homo sapiens) (UniProt Q01959)', 'active'),
  ('COc1ccccc1CN1CCN(C(=O)Cc2ccccc2)CC1', 'Sodium-dependent dopamine transporter (Homo sapiens) (UniProt Q01959)', 'inactive'),
  ('COC(=O)C1=C(c2ccccc2)C[C@@H]2CC[C@H]1N2C(=O)N1CCCCC1', 'Sodium-dependent dopamine transporter (Homo sapiens) (UniProt Q01959)', 'inactive');

Which outcome was assigned to COC(=O)C1=C(c2cc3ccccc3o2)C[C@@H]2CC[C@H]1N2C(=O)NC1CCCCC1 in this test? inactive
